tested on: LNCaP tumor-bearing CB-17 SCID mice; conditions: male, mouse, in vivo, 1 h
Quantity: Biodistribution heart (% ID/g)
Only the number, expressed in % ID/g, is required.

CC(C)(C)[Si](F)(c1ccc(C(=O)NC[C@@H](NC(=O)CC[C@@H](C(=O)O)N2CCN(CC(=O)O)CCN(CC(=O)O)CCN(CC(=O)O)CC2)C(=O)N[C@H](CCCCNC(=O)CCC(=O)NCCC[C@@H](NC(=O)CC[C@H](NC(=O)N[C@@H](CCC(=O)O)C(=O)O)C(=O)O)C(=O)O)C(=O)O)cc1)C(C)(C)C [rhPSMA7.3, [^19F][^natGa]D-Dap-S-DOTAGA-rhPSMA7, metal not drawn] has a reported Biodistribution heart of 0.87

----------
system: LNCaP tumor-bearing CB-17 SCID mice; settings: male, mouse, in vivo, 1 h
Quantity: Biodistribution pancreas (% ID/g)
Only the number, expressed in % ID/g, is required.

CC(C)(C)[Si](F)(c1ccc(C(=O)NC[C@@H](NC(=O)CC[C@@H](C(=O)O)N2CCN(CC(=O)O)CCN(CC(=O)O)CCN(CC(=O)O)CC2)C(=O)N[C@H](CCCCNC(=O)CCC(=O)NCCC[C@@H](NC(=O)CC[C@H](NC(=O)N[C@@H](CCC(=O)O)C(=O)O)C(=O)O)C(=O)O)C(=O)O)cc1)C(C)(C)C [rhPSMA7.3, [^19F][^natGa]D-Dap-S-DOTAGA-rhPSMA7, metal not drawn] has a reported Biodistribution pancreas of 0.63
